biological target: recombinant human IL-21 (rhIL-21) (human, UniProt Q9HBE4 30-162, limits assumed); assay: cell-based or functional assay
Sequence (Q9HBE4 30-162 limits assumed): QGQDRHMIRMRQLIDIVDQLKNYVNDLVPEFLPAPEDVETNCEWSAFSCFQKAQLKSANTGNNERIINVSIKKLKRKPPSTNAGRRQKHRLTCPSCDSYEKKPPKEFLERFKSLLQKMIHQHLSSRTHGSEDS
value-type: % pSTAT3+ Jurkat cells, 0.1 nM rhIL-21 + 0.2536 nM antibody (%)
Give the value in % but do not write % after it.

Example results:
>  <binder>
MIZ926 (antibody, human IgG1, V domains shown) VH: EVQLVESGGGSVKPGGSLKLSCAASGLTFSHYYMYWVRQTPEKRLEWVAIISDGGDYTHYSDSVKGRFTISRDNAKNNLYLQMSSLQSEDTAMYYCAGDYGYGYEGWFAYWGQGTLVTVST VL: DIVMTQSQKFMSTSVGDRVSVTCKASQNVDTYVAWYQQKPGQSPKALIYSTSYRYSGVPDRFTGSGSGTDFTLTISNVQSEDLAEYFCQQYNSYPWTFGGGTKLEIK

>  <unit-tag>
%

>  <value>
70.7

$$$$
>  <binder>
LKK631 (antibody, human IgG1, V domains shown) VH: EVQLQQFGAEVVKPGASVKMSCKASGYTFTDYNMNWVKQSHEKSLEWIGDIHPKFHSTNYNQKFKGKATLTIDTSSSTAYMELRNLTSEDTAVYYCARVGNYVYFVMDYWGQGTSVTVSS VL: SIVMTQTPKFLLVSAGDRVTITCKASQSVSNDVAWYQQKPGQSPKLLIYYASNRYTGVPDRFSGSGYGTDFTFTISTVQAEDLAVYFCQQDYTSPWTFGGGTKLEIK

>  <unit-tag>
%

>  <value>
71.4

$$$$
>  <binder>
FYP014 (antibody, human IgG1, V domains shown, human IgG1; also called EP3103813A1 clone 366.328.10.63) VH: EVQLVESGGGLVKPGGSLRLSCAASGFIFSSYSMNWVRQAPGKGLEWVSSITSGSYYIHYADSVKGRFTISRDNAKNSLYLQMNSLRAEDTAVYYCVRERGWGYYGMDVWGQGTTVTVSS VL: AIQLTQSPSSLSASVGDRVTITCRASQDIDSALAWYQQKPGKAPKILIHDASSLESGVPSRFSGSGSGTDFTLTISSLQPEDFATYYCQQFNSYPYTFGQGTKLEIK

>  <unit-tag>
%

>  <value>
4.93

$$$$

The record that follows has no % pSTAT3+ Jurkat cells, 0.1 nM rhIL-21 + 0.2536 nM antibody shown yet.
q: Param item = ZAP122 (antibody, human IgG1, V domains shown) VH: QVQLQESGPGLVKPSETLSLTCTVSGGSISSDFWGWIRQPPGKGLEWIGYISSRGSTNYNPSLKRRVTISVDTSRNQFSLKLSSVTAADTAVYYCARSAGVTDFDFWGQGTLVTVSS VL: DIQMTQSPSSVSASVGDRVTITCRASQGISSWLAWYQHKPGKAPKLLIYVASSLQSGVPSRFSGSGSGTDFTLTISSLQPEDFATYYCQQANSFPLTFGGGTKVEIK ; retrieve measured % pSTAT3+ Jurkat cells, 0.1 nM rhIL-21 + 0.2536 nM antibody.
a: 18.2
